assay: yeast growth modulation, basal conditions, primary screen, YJM789 clinical isolate, OD600, 24 h (AID 1089);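 further: growth of clinical yeast isolate S. cerevisiae YJM 789 seeded 1000 cells per well; test concentration not given here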; conditions: S. cerevisiae YJM789 growth, higher = more signal, called active from +8 up or from −8 down
Quantity Measured: z-score
Please state the value as a number alone, without comment.

[[record]]
compound = "C[C@]1(C(=O)NCCN2CCOCC2)c2ccccc2C(=O)N(Cc2ccccc2)[C@H]1c1ccc(CO)cc1"
reported_measurement = 0.364

[[record]]
compound = "C#CCNC(/C=C/c1ccccc1)CO (configuration not stated)"
reported_measurement = 1.11

[[record]]
compound = "COc1ccc(C(=O)Nc2ccc(CN3C(=O)[C@]4(O[C@H](CCn5cc(CCO)nn5)[C@@H]([Si](C)(C)c5ccc(OC)cc5)[C@@H]4C)c4ccccc43)cc2)cc1"
reported_measurement = 1.42

[[record]]
compound = "NC(=O)NCC#Cc1ccc2c(c1)[C@]1(C(=O)N2)[C@H](C(N)=O)[C@H]2C(=O)O[C@H](c3ccccc3)[C@H](c3ccccc3)N2[C@@H]1c1ccccc1OCCO"
reported_measurement = 0.592

[[record]]
compound = "C=CC[C@]1(C(=O)O)N=C(c2ccc(OCCCO)cc2)O[C@H]1c1ccccc1"
reported_measurement = -0.435

[[record]]
compound = "Cc1ccc(N2C(=O)c3ccccc3[C@@H](C(=O)NCc3ccccc3)[C@@H]2c2ccc(CO)cc2)nc1"
reported_measurement = 0.938

[[record]]
compound = "COc1cc(Cc2cc3c(c(CCc4ccccc4)n2)[Si](C(C)C)(C(C)C)OC3)cc(OC)c1OC"
reported_measurement = 0.238

[[record]]
compound = "CC(C)[Si]1(C(C)C)OCc2cc(C3CC3)nc(-c3ccccc3)c21"
reported_measurement = -0.604


Req: What value of z-score has been reported for the following compound? COC(=O)C[C@H]1O[C@]2(C(=O)N(Cc3ccccc3)c3ccc(I)cc32)[C@@H](C)[C@@H]1[Si](C)(C)c1ccc(OC)cc1
Resp: 0.595

Req: Similarly, CC(c1ccccc1)C(O)C1C=CC2C(=O)N(C)C(=O)C2N1N(c1ccccc1)c1ccccc1 (configuration not stated) ?
Resp: 0.414

Req: Similarly, CCCCCCc1nc(-c2cc(C)c(OC)c(C)c2)cc2c1[Si](C(C)C)(C(C)C)O[C@H]2c1ccccc1 ?
Resp: 0.955

Req: Similarly, CN(C)C(=O)[C@@]1(Cc2ccccc2N=[N+]=[N-])N=C(c2ccc(OCCCO)cc2)O[C@H]1c1ccccc1CN=[N+]=[N-] ?
Resp: -1.92

====

composite z-score reference
test system: Neuregulin-1 EGF-like domain; experiment: binders of neuregulin-1 EGF-like domain, primary screen, biochemical, small-molecule microarray, 635 nm fluorescence (AID 1081); details: small-molecule microarray binding, higher = more signal;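 further: binding of the protein to compounds printed on small-molecule microarray slides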
Please state the value as a number alone, without comment.

[[record]]
molecule = "CCOC(=O)C1=C[C@@H](c2ccccc2)N(S(=O)(=O)c2ccc(C)cc2)[C@H]1c1ccc(F)cc1"
reported_measurement = 0.949


Req: What value of composite z-score has been reported for the following molecule? COc1ccc(CCN2C(=O)[C@@]3(c4ccc([N+](=O)[O-])cc4)CC(=O)N(CC45CC6CC(CC(C6)C4)C5)[C@@H]3c3ccc(CO)cc32)cc1
Resp: 0.956

Req: Similarly, CCCC/C=C/[C@H]([C@@H](O)Cc1ccccc1)N(CC#Cc1ccccc1)Cc1ccccc1Br ?
Resp: -0.291

Req: Similarly, Cc1ccc(S[C@]2(C(=O)NC(C)C)CC(=O)N(C3Cc4ccccc4C3)[C@@H]2c2ccc(CO)cc2)cc1 ?
Resp: 0.62

Req: Similarly, O=C1OCCC/C=C\[C@H]2OC34C=CCN(CCN5CCOCC5)C(=O)[C@H]3N(CCCCCO)C(=O)[C@@H]4C12 (stereo not given in full) ?
Resp: 0.65

Req: Similarly, O=C/C=C/c1ccccc1Cl ?
Resp: -0.118

Req: Similarly, CN(C)c1ccc(C(O)C2C=CC3C(=O)NC(=O)C3N2Nc2ccc(Cl)cc2Cl)cc1 (stereo not given) ?
Resp: 1.11

Req: Similarly, C=CC[C@]1(C(=O)O)N=C(c2ccc(OCCCO)cc2)O[C@H]1c1ccccc1N=[N+]=[N-] ?
Resp: 0.686

Req: Similarly, CC(C)(C)OC(=O)CC[C@@]1(C(=O)NCc2ccccc2)N=C(c2ccc(OCCCO)cc2)O[C@@H]1c1ccccc1 ?
Resp: 1.27

Req: Similarly, CC(C)(C)OC(=O)CC[C@]1(C(=O)NCCN2CCOCC2)N=C(c2ccc(OCCCO)cc2)O[C@H]1c1ccccc1CN=[N+]=[N-] ?
Resp: 1.42
